Cited source for all entries: patent US20250313625A1

Target: T1, hFc tagged human LAG3 ECD recombinant protein (human, UniProt P18627 23-450)
T1 construct: range 23-450; also called biotin labelled hFc tagged human LAG3 ECD; not shown: human IgG Fc tag
T1 sequence (looked up): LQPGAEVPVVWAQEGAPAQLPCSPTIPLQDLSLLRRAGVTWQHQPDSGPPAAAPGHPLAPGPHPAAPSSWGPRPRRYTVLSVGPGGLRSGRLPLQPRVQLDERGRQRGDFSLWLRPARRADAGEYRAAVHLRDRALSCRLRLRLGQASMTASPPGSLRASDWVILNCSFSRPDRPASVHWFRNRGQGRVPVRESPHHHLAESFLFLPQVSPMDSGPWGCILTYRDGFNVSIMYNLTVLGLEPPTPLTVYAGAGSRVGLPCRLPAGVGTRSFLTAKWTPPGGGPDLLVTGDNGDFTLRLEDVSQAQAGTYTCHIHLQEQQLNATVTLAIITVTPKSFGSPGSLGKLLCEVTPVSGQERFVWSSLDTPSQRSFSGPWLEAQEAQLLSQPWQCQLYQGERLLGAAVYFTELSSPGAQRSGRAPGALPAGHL
Assay: competitive FACS: hFc-LAG3 ECD binding to Raji cells (MHC II)
// values below are reported IC50
Form entry: value (nM) — number only.

Input line: Provide one value: measured IC50 of Antibody 027 (antibody, V domains shown, mouse hybridoma antibody) VH: EVKILQSGGGLVQPGGSLKLSCAASGIDFSRYWMSWVRRTPGKGLEWIGEINPDSSTINYAPSLKDKFIISRDNAKNTLYLQMSKVRSEDTALYYCARLGIIPTYHYGSSGYYYAMDYWGQGTSVTVSS VL: DVLMTQTPLSLPVSLGDRASISCRSSQTIVHGNGHTSLEWYLQKPGQSPQLLIYKVSNRFSGVPDRFSASGSGTDFTLTISRVEAEDLGVYYCFQVSHVPYTFGGGTKLEIK
Output line: 5.4

With those in mind, consider the next binder.
Input line: Provide one value: measured IC50 of Antibody 015 (antibody, V domains shown, mouse hybridoma antibody) VH: EVQLQQSGPVLVKPGASVKLSCKASGFTFTDYYMNWVKLSHGKSLEWIGVINPFNGDTAYKQKFKGKATLTVDKSSSTAYMELNSLTSEDSAVYYCARDDGYYLYYFDSWGQGTTLTVSS VL: DIQMTQSPSSLSASLGERVSLTCRASQDIGSRLNWLQQEPDGTIKRLIYATSSLDSGVPKRFSGSRSGSDYSLTISSLDSEDFVVYYCLQYASSPPTFGAGTKLELK
Output line: 2.7
